Species on record: Homo sapiens
Test: Selectivity ratio of IC50 for full-length human PDE4D2 to IC50 for full-length human PDE4B2
Class membership depends on Ratio IC50 alone; the intervals are low (below 20), intermediate (20 to below 90), high (90 or more)

smiles_notation=CN(C)c1ccc(-c2nc3c(c(Nc4ccc(CC(=O)O)cc4)n2)S(=O)(=O)CCC3)cn1 classification=intermediate
smiles_notation=COc1ccc(-c2nc3c(c(Nc4ccc(CC(=O)O)cc4)n2)S(=O)(=O)CCC3)cc1Cl classification=high
smiles_notation=O=C(O)Cc1ccc(Nc2nc(-c3cc4ccccc4s3)nc3c2S(=O)(=O)CCC3)cc1F classification=high
smiles_notation=CCCCNC(=O)Cc1ccc(Nc2nc(-c3ccccc3)nc3c2S(=O)(=O)CCC3)cc1 classification=low

query: Kindly identify the class of CC(=O)c1ccc(-c2nc3c(c(Nc4ccc(CC(=O)O)cc4)n2)SCCC3)cc1 .
result: intermediate

query: Note, next up: O=C(O)Cc1ccc(Nc2nc(-c3cc4ccccc4o3)nc3c2S(=O)(=O)CCC3)cc1
result: intermediate

query: Repeat for the following compound: O=C(O)Cc1ccc(Nc2nc(-c3ccccc3F)nc3c2SCCC3)cc1
result: low

query: Repeat for the following compound: COc1ccc(-c2nc3c(c(Nc4ccc(CC(=O)O)cc4)n2)SCCC3)cc1Cl
result: low

query: Now consider CC(=O)c1ccc(-c2nc3c(c(Nc4ccc(CC(=O)O)cc4)n2)S(=O)(=O)CCC3)cc1 .
result: intermediate

query: Same question for O=C(O)Cc1ccc(Nc2nc(-c3ccc(Cl)cc3)nc3c2SCCC3)cc1 please.
result: low

query: Next compound: COc1ccc(-c2nc3c(c(Nc4cc(F)c(CC(=O)O)c(F)c4)n2)S(=O)(=O)CCC3)cc1F
result: high

query: Also COc1ccc(-c2nc3c(c(Nc4ccc(CC(=O)O)c(F)c4)n2)S(=O)(=O)CCC3)c(F)c1F , if possible.
result: high

query: Continue with O=C(O)Cc1ccc(Nc2nc(-c3ccccc3)nc3c2SCCC3)cc1
result: low

query: Next compound up: COc1ccc(-c2nc3c(c(Nc4ccc(CC(=O)NCC(C)(C)C)cc4)n2)S(=O)(=O)CCC3)cc1F
result: low

query: And COc1ccc(-c2nc3c(c(Nc4ccc(CC(=O)O)c(F)c4)n2)S(=O)(=O)CCC3)cc1F ?
result: high

query: Try the compound COc1ccc(-c2nc3c(c(Nc4cc(F)c(CC(=O)O)cc4Cl)n2)S(=O)(=O)CCC3)cc1F
result: intermediate

query: Now give it for COc1ccc(-c2nc3c(c(Nc4ccc(CC(=O)O)cc4)n2)S(=O)(=O)CCC3)cn1 too.
result: low

query: Quick one: O=C(O)Cc1ccc(Nc2nc(-c3ccc4ccccc4c3)nc3c2S(=O)(=O)CCC3)cc1F
result: high

query: Moving on to the next compound: COc1ccc(-c2nc3c(c(Nc4ccc(CC(=O)O)c(F)c4)n2)S(=O)(=O)CCC3)cc1Cl
result: high

query: Follow-up entry: CN(C)c1ccc(-c2nc3c(c(Nc4ccc(CC(=O)O)cc4)n2)S(=O)(=O)CCC3)cc1
result: intermediate

query: Entry to check: COc1ccc(-c2nc3c(c(Nc4cc(F)c(CC(=O)O)cc4F)n2)S(=O)(=O)CCC3)cc1F
result: intermediate

query: How about this compound: COc1ccc(-c2nc3c(c(Nc4ccc(CC(=O)O)cc4)n2)S(=O)(=O)CCC3)c(F)c1F
result: intermediate

query: Input O=C(O)Cc1ccc(Nc2nc(-c3ccc4c(F)cccc4c3)nc3c2S(=O)(=O)CCC3)cc1
result: intermediate

Data provenance: ChEMBL document CHEMBL3112394
